Test system: PC-3
Assay Summary: Antiproliferative activity against human PC3 cells after 72 hrs by trypan blue assay
Assay type: functional, cell-based
Test Parameters: PC-3, 72 h
Endpoint Name: IC50 (nM)

{"Chem Smiles": "NC(=O)NC(=O)c1cc(NC(=O)CI)ccc1F", "Endpoint Name": "IC50", "Test Value": 190}

---

Assay Summary: Antiproliferative activity against human MIA cells after 72 hrs by trypan blue assay
Assay type: functional, cell-based
Endpoint Name: IC50

{"Chem Smiles": "NC(=O)NC(=O)c1cc(NC(=O)CI)ccc1F", "Test Value": "54 nM"}
